# Study target: T1, human CCR8 (human, UniProt P51685 1-355)
# T1 construct: whole, on cells; also called hCCR8
# T1 sequence (P51685 whole entry): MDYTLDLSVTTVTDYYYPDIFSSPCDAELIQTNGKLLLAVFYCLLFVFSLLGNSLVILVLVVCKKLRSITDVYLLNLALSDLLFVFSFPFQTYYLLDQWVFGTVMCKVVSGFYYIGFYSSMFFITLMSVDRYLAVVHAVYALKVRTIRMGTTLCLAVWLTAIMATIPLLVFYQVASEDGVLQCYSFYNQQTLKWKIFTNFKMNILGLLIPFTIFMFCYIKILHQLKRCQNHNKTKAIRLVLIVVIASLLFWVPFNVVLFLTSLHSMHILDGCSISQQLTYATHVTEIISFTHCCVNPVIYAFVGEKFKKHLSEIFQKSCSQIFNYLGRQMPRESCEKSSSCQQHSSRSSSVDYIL
# Test method notes: FACS, competition with AF647-human CCL1 on CHO-K1-human CCR8 cells
Measurement label: Max Inhibition (%)
Unit % implied. Number only.

| Binder | Unit symbol | Max Inhibition (%) |
| --- | --- | --- |
| 262C2G7 (antibody, V domains shown, purified murine hybridoma antibody) VH: DVHLQESGPGLVKPSQSLSLTCSVTGYSITSGYYWNWIRQFPGNKLEWMGYISYDGSNNYNPSLKNRISITRDISKNQFFLKLNSVTTEDTATYYCARQIGLRRGAMDYWGQGTSVTVSS VL: DIQMTQSSSYLSVSLGGRVTITCKASDHINNWLAWYQQKPGNAPRLLISGSTSLKAGVASRFSGSGSGKDYTLTITSLQTEDVATYYCQQYWGIPFTFGGGTKLEIK | % | 95.6 |

Now examine the next entry.
Exam item: Find the recorded Max Inhibition (%) belonging to 164G10D6 (antibody, V domains shown, purified murine hybridoma antibody) VH: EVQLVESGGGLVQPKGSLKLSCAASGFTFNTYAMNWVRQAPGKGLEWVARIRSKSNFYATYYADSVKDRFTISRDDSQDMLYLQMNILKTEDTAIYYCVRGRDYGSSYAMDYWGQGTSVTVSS VL: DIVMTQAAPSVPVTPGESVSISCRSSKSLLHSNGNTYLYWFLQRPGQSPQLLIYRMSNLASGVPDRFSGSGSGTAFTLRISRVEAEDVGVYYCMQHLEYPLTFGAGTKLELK and report it.
Marked response: 97.9
